B1: ZNF263 (parent)
chain: KPYKCTLCGENFSHRSNLIRHQRI

Variants of: B1
run.description: protein stability index of a GFP-peptide fusion (GPS, HEK-293T) (PSI 1-6); higher = more stable;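 further: lentivirally expressed fusions sorted by FACS into six bins by GFP to DsRed ratio, PSI derived from sequencing read proportions per bin multiplied by bin number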
recorded.conditions: c terminus: a fixed tail appended
readout.kind: protein stability index

# variant.key, measured
records = [
    ("Y3E", 1.78),
    ("S13F", 2.26),
    ("C8N", 2.89),
    ("K1A", 2.19),
    ("S13L", 2.32),
    ("K1W", 1.92),
    ("R23K", 3.08),
    ("E10Q", 2.98),
    ("T6V", 2.07),
    ("H21P", 1.69),
    ("Q22S", 2.54),
    ("G9H", 1.81),
    ("K4L", 1.84),
    ("Q22L", 2.35),
    ("Y3N", 2.47),
    ("L18E", 1.81),
    ("C8L", 2.44),
    ("I24M", 2.74),
    ("R23G", 2.49),
    ("H14Q", 1.9),
    ("I24W", 2.4),
    ("S16W", 2.43),
    ("H21L", 1.89),
    ("C5A", 2.52),
    ("N17K", 3.28),
    ("Y3I", 1.55),
    ("L7V", 3.37),
    ("G9V", 2.14),
    ("R20D", 2.84),
    ("S13W", 2.53),
    ("Y3S", 2.11),
    ("N11S", 2.8),
    ("N17I", 2.93),
    ("P2M", 2.05),
    ("C8T", 2.69),
    ("I24Y", 2.51),
    ("K1S", 2.81),
]

Entry source: the supplement of paper PMC10567573
